Hey, just so you know, these numbers are from patent US8946261B2.

Recorded pIC50 for the following compounds
- measured on: Acetylcholinesterase (AChE) (Mus musculus)
- Construct: A 10% (w/v) homogenate of brain was prepared; supernatant (100,000 g) of the 1% Triton X-100 treated homogenate
- assay text: Acetylcholinesterase (AChE) assay in brain (in vitro), Ellman method
# reply with the number alone; pIC50 is -log10 of concentration in mol/L

Here are 3 compounds together with their reported answers.
Observed pIC50 on Acetylcholinesterase (AChE) (Mus musculus) for C#CCN1CCCc2ccc(OC(=O)Nc3ccccc3C)cc21 [Compound 10a] , please. 4.88

Observed pIC50 on Acetylcholinesterase (AChE) (Mus musculus) for C#CCN1CCCc2ccc(OC(=O)Nc3ccccc3OC)cc21 [Compound 10e] , please. 6.04

Observed pIC50 on Acetylcholinesterase (AChE) (Mus musculus) for C#CCN1CCCc2ccc(OC(=O)Nc3ccc(Cl)cc3)cc21 [Compound 10f] , please. 3.12

---
Observed pIC50 on Acetylcholinesterase (AChE) (Mus musculus) for O=C(Nc1ccccc1F)Oc1ccc2c(c1)NCCC2 , please. 4.12

Observed pIC50 on Acetylcholinesterase (AChE) (Mus musculus) for C#CCN1CCCc2ccc(OC(=O)NCCCCCCC)cc21 [Compound 10b] , please. 5.12

----------
- measured on: Acetylcholinesterase (AChE) (Mus musculus, UniProt P21836)
- Construct: A 10% (w/v) homogenate of brain was prepared; from tissue; host or cells: whole brain of adult Swiss albino mice; supernatant (100,000 g) of the 1% Triton X-100 treated homogenate
- Sequence (P21836 32-614): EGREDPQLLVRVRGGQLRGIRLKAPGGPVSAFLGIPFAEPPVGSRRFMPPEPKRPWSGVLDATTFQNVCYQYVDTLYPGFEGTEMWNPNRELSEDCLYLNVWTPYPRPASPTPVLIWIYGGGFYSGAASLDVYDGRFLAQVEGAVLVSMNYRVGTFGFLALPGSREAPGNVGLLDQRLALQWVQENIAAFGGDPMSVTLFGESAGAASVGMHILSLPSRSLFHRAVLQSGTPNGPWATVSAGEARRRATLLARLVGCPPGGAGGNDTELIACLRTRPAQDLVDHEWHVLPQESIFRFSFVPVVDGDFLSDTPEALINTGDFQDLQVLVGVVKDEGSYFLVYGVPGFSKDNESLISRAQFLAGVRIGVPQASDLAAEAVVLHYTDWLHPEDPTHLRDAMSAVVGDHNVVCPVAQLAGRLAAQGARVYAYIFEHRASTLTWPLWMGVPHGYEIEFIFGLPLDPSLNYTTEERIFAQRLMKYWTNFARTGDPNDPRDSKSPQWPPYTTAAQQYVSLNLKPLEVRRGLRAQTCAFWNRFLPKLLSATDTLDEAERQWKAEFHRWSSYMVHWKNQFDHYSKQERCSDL
- assay text: Acetylcholinesterase (AChE) assay in brain (in vitro), Ellman method
- Type: biochemical, Swiss albino mice
- measurement setup: read-out: % Inhibition of AChE enzyme
value kind: inhibition at 100 µM (%)
API: value field is a number in %; no unit string.

Here are 3 compounds together with their reported answers.
Param item = C#CCN1CCCc2ccc(OC(=O)Nc3ccccc3C)cc21 [Compound 10a] ; retrieve measured inhibition at 100 µM. 60.8

Param item = CN1CCCc2ccc(OC(=O)Nc3ccccc3F)cc21 [Compound 8l] ; retrieve measured inhibition at 100 µM. 58.8

Param item = O=C(Nc1ccccc1F)Oc1ccc2c(c1)N(Cc1ccccc1)CCC2 [Compound 8c] ; retrieve measured inhibition at 100 µM. 19.5

---
Param item = C#CCN1CCCc2ccc(OC(=O)Nc3ccc(Cl)cc3)cc21 [Compound 10f] ; retrieve measured inhibition at 100 µM. 30.9

Param item = COc1ccc(NC(=O)Oc2ccc3c(c2)N(Cc2ccccc2)CCC3)cc1 [Compound 8j] ; retrieve measured inhibition at 100 µM. 3.59

Param item = Cc1ccc(NC(=O)Oc2ccc3c(c2)N(Cc2ccccc2)CCC3)cc1 [Compound 8b] ; retrieve measured inhibition at 100 µM. 25.1

Param item = O=C(Nc1ccccc1F)Oc1ccc2c(c1)NCCC2 [Compound 9b] ; retrieve measured inhibition at 100 µM. 55.7

Param item = C#CCN1CCCc2ccc(OC(=O)Nc3ccccc3Br)cc21 [Compound 10c] ; retrieve measured inhibition at 100 µM. 87.3

----------
- measured on: Acetylcholinesterase (AChE) (Mus musculus)
- Construct: A 10% (w/v) homogenate of brain was prepared; from tissue; host or cells: whole brain of adult Swiss albino mice; supernatant (100,000 g) of the 1% Triton X-100 treated homogenate
- assay text: Acetylcholinesterase (AChE) assay in brain (in vitro), Ellman method
- Type: biochemical, Swiss albino mice
- Method: Acetylcholinesterase (AChE) Assay in Brain (In Vitro) The mice were perfused under mild ether anesthesia through heart with ice cooled normal saline (0.9% NaCl) to remove blood-born cholinesterase from the brain. After perfusion the whole brain was taken out. […] The results are expressed as mean±S.E.M. Statistical analysis of passive avoidance values were performed by t-test. The IC50 value was calculated by non linear regression method using GraphPad Prism software.
value kind: pIC50
# reply with the number alone; pIC50 is -log10 of concentration in mol/L

Param item = O=C(Nc1ccc(Cl)cc1)Oc1ccc2c(c1)NCCC2 ; retrieve measured pIC50. 3.90

Param item = O=C(Nc1ccc(F)cc1)Oc1ccc2c(c1)NCCC2 ; retrieve measured pIC50. 3.49

----------
Recorded inhibition at 10 µM for the following molecules
- measured on: Acetylcholinesterase (AChE) (Mus musculus)
- Construct: A 10% (w/v) homogenate of brain was prepared; from tissue; host or cells: whole brain of adult Swiss albino mice; supernatant (100,000 g) of the 1% Triton X-100 treated homogenate
- assay text: Acetylcholinesterase (AChE) assay in brain (in vitro), Ellman method
- Assay type: biochemical, Swiss albino mice
- measurement setup: read-out: % Inhibition of AChE enzyme
API: value field is a number in %; no unit string.

Here are 5 molecules together with their reported answers.
Param item = O=C(Nc1ccccc1F)Oc1ccc2c(c1)N(Cc1ccccc1)CCC2 ; retrieve measured inhibition at 10 µM. 9.87

Param item = C#CCN1CCCc2ccc(OC(=O)NCCCCCCC)cc21 [Compound 10b] ; retrieve measured inhibition at 10 µM. 55.5

Param item = O=C(Nc1ccc(F)cc1)Oc1ccc2c(c1)N(Cc1ccccc1)CCC2 ; retrieve measured inhibition at 10 µM. 5.23

Param item = O=C(Nc1ccc(F)cc1)Oc1ccc2c(c1)NCCC2 ; retrieve measured inhibition at 10 µM. 1.15

Param item = CN1CCCc2ccc(OC(=O)Nc3ccccc3F)cc21 ; retrieve measured inhibition at 10 µM. 32.8

Field: next molecule
Param item = C#CCN1CCCc2ccc(OC(=O)Nc3c(C)cccc3C(C)C)cc21 [Compound 10d] ; retrieve measured inhibition at 10 µM. 17.9

----------
Recorded inhibition at 10 µM for the following compounds
- measured on: Acetylcholinesterase (AChE) (Mus musculus, UniProt P21836)
- Construct: A 10% (w/v) homogenate of brain was prepared; from tissue; host or cells: whole brain of adult Swiss albino mice; supernatant (100,000 g) of the 1% Triton X-100 treated homogenate
- assay text: Acetylcholinesterase (AChE) assay in brain (in vitro), Ellman method
- Format: biochemical, Swiss albino mice
- measurement setup: read-out: % Inhibition of AChE enzyme
- Experimental: Acetylcholinesterase (AChE) Assay in Brain (In Vitro) The mice were perfused under mild ether anesthesia through heart with ice cooled normal saline (0.9% NaCl) to remove blood-born cholinesterase from the brain. After perfusion the whole brain was taken out. […] The results are expressed as mean±S.E.M. Statistical analysis of passive avoidance values were performed by t-test. The IC50 value was calculated by non linear regression method using GraphPad Prism software.
API: value field is a number in %; no unit string.

Param item = Cc1ccc(NC(=O)Oc2ccc3c(c2)N(Cc2ccccc2)CCC3)cc1 ; retrieve measured inhibition at 10 µM. 5.41

Param item = Cc1ccc(NC(=O)Oc2ccc3c(c2)NCCC3)cc1 ; retrieve measured inhibition at 10 µM. 0.01

Param item = CN(C)C(=O)Oc1ccc2c(c1)N(Cc1ccccc1)CCC2 ; retrieve measured inhibition at 10 µM. 95.5

Param item = C#CCN1CCCc2ccc(OC(=O)N(C)C)cc21 [Compound 10g] ; retrieve measured inhibition at 10 µM. 94.2

Param item = Cc1ccccc1NC(=O)Oc1ccc2c(c1)N(Cc1ccccc1)CCC2 ; retrieve measured inhibition at 10 µM. 44.1

Param item = C#CCN1CCCc2ccc(OC(=O)Nc3ccc(Cl)cc3)cc21 [Compound 10f] ; retrieve measured inhibition at 10 µM. 25.4

---
Param item = C#CCN1CCCc2ccc(OC(=O)Nc3ccccc3Br)cc21 [Compound 10c] ; retrieve measured inhibition at 10 µM. 71.7

Param item = COc1ccc(NC(=O)Oc2ccc3c(c2)N(Cc2ccccc2)CCC3)cc1 ; retrieve measured inhibition at 10 µM. 1.41

Param item = O=C(Nc1ccc(Cl)cc1)Oc1ccc2c(c1)NCCC2 ; retrieve measured inhibition at 10 µM. 1.86

Param item = C#CCN1CCCc2ccc(OC(=O)Nc3ccccc3C)cc21 [Compound 10a] ; retrieve measured inhibition at 10 µM. 52.5
